The compounds listed here are annotated with their growth.
system: NCI-H226 lung; test: NCI-60 one-dose screen, 48 h (100 = growth as untreated, 0 = no growth, -100 = all killed); details: 10 µM unless noted
This is part of a sample that, as a whole, favours compounds with a hit. Of some 83,000 tested, about 20% had one in any assay.
Reported Metric: growth (%)

> print(dat)
                                    compound  reported.value
 1               CSC(SC)=C(C#N)c1nc2ccccc2s1              59
 2  CCCCNc1cc(-c2cn[nH]c2-c2cc(C)cc(OC)c2)nc(-c2cccnc2)n1            87.4
 3  Nc1ncnc2c1N=C(c1ccc3c(c1)OCO3)CC(c1cccc(Nc3ccnc4cc(C(F)(F)F)ccc34)c1)N2 (centres undefined)            78.1
 4  O=C(C1=Cc2cc3ccccc3n2Cc2cnnn21)c1ccc(O)cc1            85.1
 5    Cc1ccc(S(=O)(=O)N2CCC(=O)c3ccccc32)cc1            93.9
 6  O=S(=O)(NCCNc1nccc(-c2c(-c3cccc(O)c3)nc3occn23)n1)c1ccc(Br)cc1            37.1
 7  Cc1ccc(S(=O)(=O)Oc2ccc3sc4cccc(NCCN(C)C)c4c(=O)c3c2)cc1           -71.9
 8  Cc1ccc(-c2nc(/C=C3/C(=O)Nc4ccc(F)cc43)c3ccccn23)cc1            95.2
 9  Cc1ccc2c(-n3nc(C#N)c(C#N)c3N)cc(=O)[nH]c2c1            78.7
10  CC/C=C\CCC/C=C1/C(=O)C=C[C@@H]1C/C=C\CCCC(=O)OC              77
11  CN(C)c1ccc(/C=C(\C#N)c2cc3ccccc3[nH]2)cc1            70.8
12  CCN1C(=O)N(CC)C2C1NN=c1s/c(=C3\C(=O)N(CC(C)C)c4ccccc43)c(=O)n12 (centres undefined)            61.5
13  COc1cccc(NCc2nnc(Nc3ccc(Cl)cc3)c3ccccc23)c1           -22.9
14  Oc1c(CN2CCC(N3CCCCC3)CC2)cc(Cc2cc(CN3CCC(N4CCCCC4)CC3)c(O)c3ncccc23)c2cccnc12            5.18
15  COc1ccc(/C=C/C(=O)c2ccc(NC(=O)CSc3nc4c([nH]3)c(=O)n(C)c(=O)n4C)cc2)cc1OC            81.1
16  O=C1/C(=C\c2cccc3nccnc23)SC(=S)N1CCc1ccc(O)cc1            95.4
17  COc1cccc(CCNc2ncnc3c2ncn3Cc2nnc3c4ccccc4c(Cl)nn23)c1            66.6
18                      COC(=O)c1cc(Br)ccc1O             101
19  COc1ccc2[nH]cc(-c3nc(-c4c[nH]c5c(Cl)nccc45)cs3)c2c1            40.3
20  Nc1nc(N)c2c(n1)NC(c1cccc(Nc3ccnc4cc(C(F)(F)F)ccc34)c1)CC(c1ccc(Br)cc1)=N2 (centres undefined)            93.9
21  CCOC(=O)C1=C(C)/C(=C\c2[nH]c(C)c(C(=O)OCC)c2C)N=C1C            94.3
22  CSC1=Nc2c(c(C)c(-c3ccccc3)n2CCCC(=O)O)C2=NC(=O)C[C@H](C)N12             110
23  CCCCNc1nnc2n(Cc3ccccc3)c(=O)c3c4c(sc3n12)CCCC4            50.8
24  O=C1c2cccc3cccc(c23)C(=O)N1C/C=C/c1ccc2c3c(cccc13)C(=O)N(CCO)C2=O            58.3
25  N=c1c(S(=O)(=O)c2ccccc2)cc2c(=O)n3ccccc3nc2n1CC1CCCO1 (centres undefined)             103
26  O=C(Nc1ccccc1O)c1ccc(CNC(=O)c2ccsc2Nc2ccnc(C(F)(F)F)c2)cc1            38.3
27  Cc1nn(-c2cc(NC3CCC(O)CC3)c3c(=O)[nH]c(CCC(F)(F)F)cc3c2)c2c1C(=O)CC(C)(C)C2 (centres undefined)            67.8
28  O=C(O)c1ccc(-c2ccc(/C=N/Nc3nc(Nc4ccccc4)nc(N4CCCCC4)n3)o2)cc1            92.4
29  C=C(CNCCc1ccc(O)cc1)[C@@H]1CC[C@]2(CO)CC[C@]3(C)[C@H](CC[C@@H]4[C@@]5(C)CCC(=O)C(C)(C)[C@@H]5CC[C@]43C)[C@@H]12            93.1
30  CC(=C(c1ccc(OCCN2CCCCC2)cc1)c1ccc(OCCN2CCCCC2)cc1)c1ccc(Cl)cc1           -73.4
31           Cc1ccc(C=C2C(=O)NC(=O)NC2=O)cc1             105
32  CCN1C(=O)N(CC)C2Nn3c(s/c(=C\c4ccccc4Br)c3=O)=NC21 (centres undefined)            57.5
33  COc1ccc(Oc2nc(Nc3ccc(N4CCOCC4)cc3)ncc2NC(=O)Nc2cc(OC)cc(OC)c2)cc1            32.7
34       N=C(N)c1ccc(-c2ccc(-c3ccccc3)s2)cc1             103
35  O=C(NNC(=O)c1nc2cc(F)ccc2n2cccc12)c1cnccn1            42.4
36  O=C(Nc1cnc(Nc2ccc(N3CCOCC3)nc2)nc1Oc1ccc(C(F)(F)F)cc1)c1ccncc1            92.8
37  O=c1ccc(=O)n(-c2nc(-c3ccc([N+](=O)[O-])cc3)cs2)[nH]1            96.3
38  O=C1c2ccccc2C(=O)c2c1c(C(=O)NCc1ccccc1)c1ccccn21             100
39  Cc1ccc(S(=O)(=O)OCCCOS(=O)(=O)c2ccc(C)cc2)cc1             107

====

tested on: UO-31 renal; test: NCI-60 one-dose screen, 48 h; settings: 10 µM unless noted
This is part of a sample that, as a whole, favours compounds with a hit. Of some 83,000 tested, about 20% had one in any assay. The source made the active and inactive calls. Rule for the calls: active = growth percent below 10; inactive = the rest.
Outcome codes: active, inactive

Molecule	Target Desc	Assigned Label
O=C(Nc1ccccc1N1CCCC1=O)c1oc2ccc(F)cc2c1-c1cnn(-c2ccccc2)c1	UO-31 renal	active
C=CCn1c(SCC(=O)Nc2ccc(/C(C)=N/O)cc2)nnc1-c1cc(-c2ccc(S(N)(=O)=O)cc2)nc2ccccc12	UO-31 renal	inactive
Cc1cccc(-c2nc(Nc3ccc4ncsc4c3)c3ccccc3n2)n1	UO-31 renal	inactive
CCN1C(=O)N(CC)C2C1NN=c1s/c(=C\c3ccc[nH]3)c(=O)n12 (configuration not stated)	UO-31 renal	inactive
CC/C(Cc1ccccc1)=C(\c1ccc(OCCCN(C)C)cc1)c1ccc(OC(=O)NCc2ccccc2)cc1	UO-31 renal	inactive
CC(=O)OC(c1ccccc1)C1CCOC1=O (configuration not stated)	UO-31 renal	active
COc1cc(-c2nc3cc(Cl)c(Cl)cc3[nH]2)ccc1OCC(=O)N=Nc1c(O)[nH]c2ccc(Cl)cc12	UO-31 renal	inactive
N#Cc1nc(-c2ccccc2)oc1S(=O)(=O)N1CCN(c2ccc(F)cc2)CC1	UO-31 renal	inactive
C=C1CC[C@@H]2[C@](C)(COC(C)=O)[C@H](OC(C)=O)CC[C@@]2(C)[C@@H]1CC(Nc1ccc(S(=O)(=O)NC(C)=O)cc1)C1=CCOC1=O (some centres not stated)	UO-31 renal	active
CSC(SC)=C(C#N)c1nc2ccccc2s1	UO-31 renal	inactive
COc1cnc2c(c1)C(=O)c1c-2n(CCCCl)c(=O)c2ccncc12	UO-31 renal	inactive
CCCn1nc(C(=O)N(C)Cc2ccccc2)c2c1CCC(N1CCc3ccccc31)C2 (configuration not stated)	UO-31 renal	inactive
O=C(/C=C(O)/C=C/c1cccc2[nH]ccc12)/C=C/c1cccc2[nH]ccc12	UO-31 renal	inactive
O=C(Cc1ccc(/C=C/C(=O)c2ncc[nH]2)cc1)Nc1cc(C(F)(F)F)cc(C(F)(F)F)c1	UO-31 renal	inactive
COc1ccc(C2=CC(c3cc(OC)c(OC)c(OC)c3)n3ncnc3N2)cc1 (configuration not stated)	UO-31 renal	inactive
CC1(C)N=C(N)N=C(N)N1c1ccc(CCCCc2ccccc2)c(Cl)c1	UO-31 renal	inactive
O=C(/C=C/c1ccc(Cl)cc1)c1cccc(OCCCOc2cccc(C(=O)/C=C/c3ccc(Cl)cc3)c2)c1	UO-31 renal	inactive
C=C(C)[C@@H]1CCC[C@]2(C(=O)O)CC[C@]3(C)[C@@H](CC[C@@H]4[C@@]5(C)C/C(=C/c6ccncc6)C(=O)C(C)(C)[C@@H]5CC[C@]43C)[C@@H]12	UO-31 renal	inactive
CCOC(=O)C(Cc1ccc(OC)cc1)C(=O)OCC	UO-31 renal	inactive
Fc1cccc(-c2ccc3c(c2)C2(CCNCC2)CN3)c1	UO-31 renal	inactive
CC1(C)CC[C@]23CC[C@]4(C)[C@H](CC[C@@H]5[C@@]6(C)C/C(=C/c7ccncc7)C(=O)C(C)(C)[C@@H]6CC[C@]54C)[C@H]2[C@H]1OC3	UO-31 renal	inactive
COc1ccc2c(c1)c(-c1nc(-c3c[nH]c4ncccc34)cs1)cn2CCO	UO-31 renal	inactive
COc1cccc(/C=C/C(=O)c2cc3c(N)c(C(=O)Nc4cccc5ccccc45)sc3nc2C)c1	UO-31 renal	inactive
CCCCC#Cc1c(I)n(C)c(=O)[nH]c1=O	UO-31 renal	active
O=C1c2cccc3cccc(c23)C(=O)N1C/C=C/c1ccc2c3c(cccc13)C(=O)N(CCO)C2=O	UO-31 renal	inactive
O=C(O)COc1ccc(Cl)c(Cl)c1	UO-31 renal	inactive
COC(=O)c1c2c(c(C)[n+]([O-])c1C)C(=O)C(NCc1ccc(OC)cc1)=CC2=O	UO-31 renal	inactive
COc1ccc(/C=C/C(c2cc(OC)c(OC)c(OC)c2)n2ccnc2)cc1O (configuration not stated)	UO-31 renal	inactive
Cc1c(CC(=S)N2CCOCC2)nnn1-c1cccc(C(F)(F)F)c1	UO-31 renal	inactive
CC(C)=CCNc1ncnc2c1ncn2C1OC(CO)C(O)C1O (configuration not stated)	UO-31 renal	active
CC(=O)c1sc2sc(C(C)=O)c(C)c2c1C	UO-31 renal	inactive
[2H]C([2H])([2H])Oc1ccc(F)cc1/C=C/C(=O)/C=C(O)/C=C/c1cc(F)ccc1OC([2H])([2H])[2H]	UO-31 renal	inactive
COc1ccc(CCN(CC(=O)N(CC(N)=O)C2CCC[C@@H]2OCc2ccccc2)C(=O)CN(C(=O)CN(CCc2ccc(Cl)cc2)C(=O)CN(C(=O)CN(C)Cc2ccccc2F)[C@H](C)C2CCCCC2)[C@H](C)C2CCCCC2)cc1OC (some centres not stated)	UO-31 renal	inactive
Oc1c(CN2CCCC2)cc(CSCc2ccccc2)c2cccnc12	UO-31 renal	active
Cc1nc2cc(O)c(O)cc2cc1Oc1ccc(NC(=O)Nc2ccc(Cl)c(Cl)c2)cc1	UO-31 renal	inactive
CN1CCN(Cc2ccc(NC(=O)c3cncc(C#Cc4cnc(N)c5ncccc45)c3)cc2C(F)(F)F)CC1	UO-31 renal	active
NS(=O)(=O)c1ccc(NC(=O)/C(=C\c2ccc(Cl)cc2Cl)NC(=O)c2ccccc2)cc1	UO-31 renal	inactive
